test: Rat brain to plasma ratio at 1 mg/kg, po; type: ADME, organism-based; parameters: dose 1 mg/kg, route oral; conditions: brain and plasma

>  <Smiles str>
N#Cc1cc(F)ccc1-c1cc(-c2cnc3nc(C(F)(F)F)ccn23)ccn1

>  <Kp>
0.73

$$$$

* * *

biological target: GABA-A receptor; alpha-1/beta-3/gamma-2 (Homo sapiens) (UniProt P14867+P18507+P28472); assay: Efficacy against recombinant human GABA-Aalpha1 receptor plus beta-3-gamma-2 expressed in L(tk-) cells by whole cell patch clamp method; format: functional, cell-based

>  <Smiles str>
COc1cccc(-c2cnc3nc(C(F)(F)F)ccn23)n1

>  <Test system>
GABA-A receptor; alpha-1/beta-3/gamma-2 (Homo sapiens) (UniProt P14867+P18507+P28472)

>  <Efficacy, %>
-41.4

$$$$
>  <Smiles str>
N#Cc1ccccc1-c1cc(-c2cnc3nc(C(F)(F)F)ccn23)ccn1

>  <Test system>
GABA-A receptor; alpha-1/beta-3/gamma-2 (Homo sapiens) (UniProt P14867+P18507+P28472)

>  <Efficacy, %>
15

$$$$
>  <Smiles str>
N#Cc1ccccc1-c1cccc(-c2cnc3nc(C(F)(F)F)ccn23)c1

>  <Test system>
GABA-A receptor; alpha-1/beta-3/gamma-2 (Homo sapiens) (UniProt P14867+P18507+P28472)

>  <Efficacy, %>
19

$$$$
>  <Smiles str>
N#Cc1cc(F)ccc1-c1cc(-c2cnc3nc(C(F)(F)F)ccn23)ccn1

>  <Test system>
GABA-A receptor; alpha-1/beta-3/gamma-2 (Homo sapiens) (UniProt P14867+P18507+P28472)

>  <Efficacy, %>
0

$$$$

* * *

Catalogue of Efficacy values
biological target: GABA-A receptor; alpha-1/beta-3/gamma-2 (Homo sapiens) (UniProt P14867+P18507+P28472); assay: Efficacy against recombinant human GABA-Aalpha1 receptor plus beta-3-gamma-2 as measured by modulation of chloride ion flux; format: functional
Reported property: Efficacy

>  <Smiles str>
Fc1ccccc1-c1cc(-c2cnc3nc(C(F)(F)F)ccn23)ccn1

>  <Test system>
GABA-A receptor; alpha-1/beta-3/gamma-2 (Homo sapiens) (UniProt P14867+P18507+P28472)

>  <Measured>
6%

$$$$
>  <Smiles str>
FC(F)(F)c1ccn2c(-c3ccccn3)cnc2n1

>  <Test system>
GABA-A receptor; alpha-1/beta-3/gamma-2 (Homo sapiens) (UniProt P14867+P18507+P28472)

>  <Measured>
-40%

$$$$
>  <Smiles str>
N#Cc1ccccc1-c1cccc(-c2cnc3nc(C(F)(F)F)ccn23)c1

>  <Test system>
GABA-A receptor; alpha-1/beta-3/gamma-2 (Homo sapiens) (UniProt P14867+P18507+P28472)

>  <Measured>
10%

$$$$
>  <Smiles str>
N#Cc1ccccc1-c1cncc(-c2cnc3nc(C(F)(F)F)ccn23)c1

>  <Test system>
GABA-A receptor; alpha-1/beta-3/gamma-2 (Homo sapiens) (UniProt P14867+P18507+P28472)

>  <Measured>
-55%

$$$$
>  <Smiles str>
N#Cc1ccccc1-c1cccc(-c2cnc3nc(C(F)(F)F)ccn23)n1

>  <Test system>
GABA-A receptor; alpha-1/beta-3/gamma-2 (Homo sapiens) (UniProt P14867+P18507+P28472)

>  <Measured>
-8%

$$$$
>  <Smiles str>
N#Cc1ccccc1-c1nccc(-c2cnc3nc(C(F)(F)F)ccn23)n1

>  <Test system>
GABA-A receptor; alpha-1/beta-3/gamma-2 (Homo sapiens) (UniProt P14867+P18507+P28472)

>  <Measured>
-29%

$$$$

* * *

Target: GABA-A receptor; alpha-3/beta-3/gamma-2 (Homo sapiens, UniProt P18507+P28472+P34903)
Sequence (P18507 whole entry): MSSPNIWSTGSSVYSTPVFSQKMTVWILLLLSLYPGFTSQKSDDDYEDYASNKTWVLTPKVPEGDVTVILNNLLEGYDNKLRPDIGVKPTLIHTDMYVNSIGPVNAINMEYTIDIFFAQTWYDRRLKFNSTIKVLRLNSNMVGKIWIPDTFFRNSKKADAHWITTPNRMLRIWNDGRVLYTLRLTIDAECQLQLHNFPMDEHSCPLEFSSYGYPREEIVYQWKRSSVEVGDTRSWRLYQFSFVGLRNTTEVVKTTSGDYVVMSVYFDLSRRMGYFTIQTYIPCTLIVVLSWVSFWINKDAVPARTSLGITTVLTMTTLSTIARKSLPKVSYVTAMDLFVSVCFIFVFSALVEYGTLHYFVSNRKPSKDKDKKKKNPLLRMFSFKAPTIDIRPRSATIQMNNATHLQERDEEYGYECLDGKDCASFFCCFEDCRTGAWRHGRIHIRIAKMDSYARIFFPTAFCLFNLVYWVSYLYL
Sequence (P28472 whole entry): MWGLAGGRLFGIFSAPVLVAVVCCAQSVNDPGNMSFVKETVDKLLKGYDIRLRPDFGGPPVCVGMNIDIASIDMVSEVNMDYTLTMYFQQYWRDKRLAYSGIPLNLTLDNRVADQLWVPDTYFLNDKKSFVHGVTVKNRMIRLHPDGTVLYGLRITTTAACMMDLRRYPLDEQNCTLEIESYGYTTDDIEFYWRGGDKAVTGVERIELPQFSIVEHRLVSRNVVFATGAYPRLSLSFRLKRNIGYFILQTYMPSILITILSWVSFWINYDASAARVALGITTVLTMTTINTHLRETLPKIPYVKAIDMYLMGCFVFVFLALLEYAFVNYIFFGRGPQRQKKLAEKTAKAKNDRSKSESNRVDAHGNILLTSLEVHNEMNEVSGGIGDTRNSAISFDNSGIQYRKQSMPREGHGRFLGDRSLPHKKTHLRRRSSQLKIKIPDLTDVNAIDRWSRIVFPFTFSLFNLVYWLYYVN
Sequence (P34903 whole entry): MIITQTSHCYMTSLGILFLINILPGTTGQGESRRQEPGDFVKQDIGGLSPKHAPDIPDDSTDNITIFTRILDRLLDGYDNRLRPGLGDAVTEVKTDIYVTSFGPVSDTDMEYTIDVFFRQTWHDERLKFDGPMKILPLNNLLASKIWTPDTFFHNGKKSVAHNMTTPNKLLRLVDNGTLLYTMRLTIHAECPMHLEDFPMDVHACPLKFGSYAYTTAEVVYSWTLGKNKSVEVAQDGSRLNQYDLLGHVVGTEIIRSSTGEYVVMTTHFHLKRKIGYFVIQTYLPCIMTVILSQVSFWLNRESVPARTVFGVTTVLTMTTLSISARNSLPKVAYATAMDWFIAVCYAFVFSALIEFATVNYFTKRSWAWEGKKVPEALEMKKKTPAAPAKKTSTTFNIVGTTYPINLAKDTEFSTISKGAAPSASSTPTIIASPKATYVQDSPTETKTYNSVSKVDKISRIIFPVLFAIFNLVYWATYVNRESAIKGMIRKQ
Assay: Displacement of [3H]Ro 15-1788 from recombinant human GABA-Aalpha3 receptor plus beta-3-gamma-2 expressed in L(tk-) cells
Catalogue of Ki values

>  <Smiles str>
COc1cccc(-c2cnc3nc(C(F)(F)F)ccn23)n1

>  <Test system>
GABA-A receptor; alpha-3/beta-3/gamma-2 (Homo sapiens, UniProt P18507+P28472+P34903)

>  <Value relation sign>
=

>  <Ki [nM]>
1.7

$$$$
>  <Smiles str>
COc1cc(-c2cnc3nc(C(F)(F)F)ccn23)ccn1

>  <Test system>
GABA-A receptor; alpha-3/beta-3/gamma-2 (Homo sapiens, UniProt P18507+P28472+P34903)

>  <Value relation sign>
>

>  <Ki [nM]>
33

$$$$
>  <Smiles str>
FC(F)(F)c1ccn2c(-c3cc(Cl)ncn3)cnc2n1

>  <Test system>
GABA-A receptor; alpha-3/beta-3/gamma-2 (Homo sapiens, UniProt P18507+P28472+P34903)

>  <Value relation sign>
>

>  <Ki [nM]>
33

$$$$
>  <Smiles str>
FC(F)(F)c1ccn2c(-c3ccnc(Cl)n3)cnc2n1

>  <Test system>
GABA-A receptor; alpha-3/beta-3/gamma-2 (Homo sapiens, UniProt P18507+P28472+P34903)

>  <Value relation sign>
=

>  <Ki [nM]>
2

$$$$
>  <Smiles str>
COc1ccccc1-c1cc(-c2cnc3nc(C(F)(F)F)ccn23)ccn1

>  <Test system>
GABA-A receptor; alpha-3/beta-3/gamma-2 (Homo sapiens, UniProt P18507+P28472+P34903)

>  <Value relation sign>
=

>  <Ki [nM]>
6.1

$$$$
>  <Smiles str>
CCO/N=C(\C)c1ccc2c(c1)ncn2-c1cccc(-c2cccnc2)c1

>  <Test system>
GABA-A receptor; alpha-3/beta-3/gamma-2 (Homo sapiens, UniProt P18507+P28472+P34903)

>  <Value relation sign>
=

>  <Ki [nM]>
13

$$$$
>  <Smiles str>
FC(F)(F)c1ccn2c(-c3cc(Cl)ccn3)cnc2n1

>  <Test system>
GABA-A receptor; alpha-3/beta-3/gamma-2 (Homo sapiens, UniProt P18507+P28472+P34903)

>  <Value relation sign>
>

>  <Ki [nM]>
33

$$$$
>  <Smiles str>
FC(F)(F)c1ccn2c(-c3ccccn3)cnc2n1

>  <Test system>
GABA-A receptor; alpha-3/beta-3/gamma-2 (Homo sapiens, UniProt P18507+P28472+P34903)

>  <Value relation sign>
=

>  <Ki [nM]>
11

$$$$
>  <Smiles str>
N#Cc1cc(F)ccc1-c1cc(-c2cnc3nc(C(F)(F)F)ccn23)ccn1

>  <Test system>
GABA-A receptor; alpha-3/beta-3/gamma-2 (Homo sapiens, UniProt P18507+P28472+P34903)

>  <Value relation sign>
=

>  <Ki [nM]>
2.2

$$$$
>  <Smiles str>
Fc1ccccc1-c1cc(-c2cnc3nc(C(F)(F)F)ccn23)ccn1

>  <Test system>
GABA-A receptor; alpha-3/beta-3/gamma-2 (Homo sapiens, UniProt P18507+P28472+P34903)

>  <Value relation sign>
=

>  <Ki [nM]>
14

$$$$
>  <Smiles str>
N#Cc1ccccc1-c1cccc(-c2cnc3nc(C(F)(F)F)ccn23)n1

>  <Test system>
GABA-A receptor; alpha-3/beta-3/gamma-2 (Homo sapiens, UniProt P18507+P28472+P34903)

>  <Value relation sign>
=

>  <Ki [nM]>
0.46

$$$$

Values compiled from ChEMBL document CHEMBL1138168.
